# Test system: Vero
# ASSAY METHOD TEXT: Cytotoxicity against African green monkey Vero cells at 787 ug/mL by neutral red dye uptake assay relative to control
# Format: cell-based
# MEASUREMENT CONTEXT: chlorocebus sabaeus

| MOLECULE | Cell viability / % |
| --- | --- |
| COc1ccccc1C1SCC(=O)N1CCN1CCCCC1 (stereo unspecified) | 30 |
| O=C1CSC(c2ccccc2[N+](=O)[O-])N1CCN1CCCCC1 (stereo unspecified) | 100 |
| O=C1CSC(c2ccc([N+](=O)[O-])cc2)N1CCN1CCCCC1 (stereo unspecified) | 21 |
| O=C1CSC(c2cccc([N+](=O)[O-])c2)N1CCN1CCCCC1 (stereo unspecified) | 15 |
| O=C1CSC(c2c(Cl)cccc2Cl)N1CCN1CCCCC1 (stereo unspecified) | 11 |
| COc1ccc(C2SCC(=O)N2CCN2CCCCC2)cc1 (stereo unspecified) | 33 |
| COc1cccc(C2SCC(=O)N2CCN2CCCCC2)c1 (stereo unspecified) | 19 |
| O=C1CSC(c2ccccc2F)N1CCN1CCCCC1 (stereo unspecified) | 10 |
| O=C1CSC(c2cccc(O)c2)N1CCN1CCCCC1 (stereo unspecified) | 60 |
| O=C1CSC(c2ccc(O)cc2)N1CCN1CCCCC1 (stereo unspecified) | 57 |
| Cc1ccc(C2SCC(=O)N2CCN2CCCCC2)cc1 (stereo unspecified) | 17 |
| O=C1CSC(c2ccccc2Cl)N1CCN1CCCCC1 (stereo unspecified) | 38 |
| O=C1CSC(c2ccc(Cl)cc2)N1CCN1CCCCC1 (stereo unspecified) | 15 |
| O=C1CSC(c2cccc(F)c2)N1CCN1CCCCC1 (stereo unspecified) | 27 |
| O=C1CSC(c2ccc(F)cc2)N1CCN1CCCCC1 (stereo unspecified) | 17 |
| O=C1CSC(c2cccc(Cl)c2)N1CCN1CCCCC1 (stereo unspecified) | 31 |
